molecular target: Cyclin Dependent Kinase 2/Cyclin E1 (CDK2-cycE1) (Homo sapiens, UniProt P24941); construct: purchased ProQinase 0050-0055-1; test: CDK2-cycE1 TR-FRET (LANCE) enzyme assay; assay type: biochemical; details: Table R, enzymatic assay; read-out: CDK2 Ki
pKi: −log10 of the molar value.
QUANTITY MEASURED: pKi

TEST SMILES	STUDY SYSTEM	QUANTITY MEASURED	VALUE RELATION SIGN	ENDPOINT RESULT
Cc1cc(Nc2cc([C@H]3CC[C@@H](OC(=O)NC(C)(C)C)C3)[nH]n2)nn(C)c1=O	Cyclin Dependent Kinase 2/Cyclin E1 (CDK2-cycE1) (Homo sapiens, UniProt P24941)	pKi	>	10.00
Cc1ncccc1Nc1cc([C@H]2CC[C@@H](OC(=O)NC(C)(C)C)C2)[nH]n1	Cyclin Dependent Kinase 2/Cyclin E1 (CDK2-cycE1) (Homo sapiens, UniProt P24941)	pKi	=	9.66
CNC(=O)c1ccc(Nc2cc([C@H]3CC[C@@H](OC(=O)NC(C)(C)C)C3)[nH]n2)nc1	Cyclin Dependent Kinase 2/Cyclin E1 (CDK2-cycE1) (Homo sapiens, UniProt P24941)	pKi	=	8.80
Cn1cc(Nc2cc([C@H]3CC[C@@H](OC(=O)NC(C)(C)C)C3)[nH]n2)ccc1=O	Cyclin Dependent Kinase 2/Cyclin E1 (CDK2-cycE1) (Homo sapiens, UniProt P24941)	pKi	=	8.12
CC(C)(C)NC(=O)O[C@@H]1CC[C@H](c2cc(Nc3ncccn3)n[nH]2)C1	Cyclin Dependent Kinase 2/Cyclin E1 (CDK2-cycE1) (Homo sapiens, UniProt P24941)	pKi	=	8.60
Cn1nc(Nc2cc([C@H]3CC[C@@H](OC(=O)NC(C)(C)C)C3)[nH]n2)ccc1=O	Cyclin Dependent Kinase 2/Cyclin E1 (CDK2-cycE1) (Homo sapiens, UniProt P24941)	pKi	>	10.00
CC(C)(C)NC(=O)O[C@@H]1CC[C@H](c2cc(Nc3cccnn3)n[nH]2)C1	Cyclin Dependent Kinase 2/Cyclin E1 (CDK2-cycE1) (Homo sapiens, UniProt P24941)	pKi	=	8.60

###

Recorded CDK2 Ki fold change in potency versus Comparator D for the following compounds
Target: Cyclin Dependent Kinase 2/Cyclin E1 (CDK2-cycE1) (Homo sapiens)
Construct: purchased ProQinase 0050-0055-1
Assay: CDK2-cycE1 TR-FRET (LANCE) enzyme assay
Format: biochemical
Details: Table R, in brackets after CDK2 Ki
Description: Cyclin Dependent Kinase 1/Cyclin A2 (CDK1-cycA2), Cyclin Dependent Kinase 2/Cyclin E1 (CDK2-cycE1), Cyclin Dependent Kinase 4/Cyclin D3 (CDK4-cycD3) and Cyclin Dependent Kinase 6/Cyclin D3 (CDK6-cycD3) enzyme assays were carried out as described below. […] An Echo acoustic dispenser is used to create dose responses of compound dissolved in DMSO into a 384-well microplate. […] Signal is a ratio of the Acceptor and Donor fluorescence. Inhibition constants are calculated via the Morrison equation. […]
QUANTITY MEASURED: CDK2 Ki fold change in potency versus Comparator D

COMPOUND	ENDPOINT RESULT
Cc1cc(=O)n(C)nc1Nc1cc([C@H]2CC[C@@H](OC(=O)NC(C)(C)C)C2)[nH]n1 [Example 4C]	1.3 fold
Cn1nc(Nc2cc([C@H]3CC[C@@H](OC(=O)NC(C)(C)C)C3)[nH]n2)ccc1=O [Example 6C]	27 fold
Cc1ccc(Nc2cc([C@H]3CC[C@@H](OC(=O)NC(C)(C)C)C3)[nH]n2)cn1 [Example 4B]	5.2 fold
CC(C)NC(=O)O[C@@H]1CC[C@H](c2cc(Nc3cccnc3)n[nH]2)C1 [Example 2A]	1.6 fold
Cc1ncccc1Nc1cc([C@H]2CC[C@@H](OC(=O)NC(C)(C)C)C2)[nH]n1 [Example 4]	12.3 fold
Cn1cc(Nc2cc([C@H]3CC[C@@H](OC(=O)NC(C)(C)C)C3)[nH]n2)ccc1=O [Example 1]	0.4 fold
CC(C)(C)NC(=O)O[C@@H]1CC[C@H](c2cc(Nc3ccncc3)n[nH]2)C1 [Example 4H]	1.4 fold
CNC(=O)c1ccnc(Nc2cc([C@H]3CC[C@@H](OC(=O)NC(C)(C)C)C3)[nH]n2)c1 [Example 4F]	1.1 fold

Every entry's value here was drawn from patent US20240425478A1.
